Below, each entry is listed with its recorded TD50.
procedure_details: Rotarod/ataxia test in rats
applied_conditions: rat, in vivo, po

Below, each entry is followed by its recorded TD50 result.
CC(C)C[C@H](CN)CC(=O)O [pregabalin]: 536 mg/kg
CC[C@@H](C(N)=O)N1CCCC1=O [levetiracetam]: 2000 mg/kg

Below: the item to evaluate.
INPUT: I'd like to know its TD50. The molecule in question is COc1cccc(C2(O)CCCCC2CN(C)C)c1 (stereo not drawn) [tramadol]
OUTPUT: 253 mg/kg
